Molecular target: T1, human PVRIG-his (AcroBiosystems, Cat NO. PVG-H52H4) (human, UniProt Q6DKI7 41-171, limits assumed)
T1 construct: also called human PVRIG protein
T1 sequence (looked up): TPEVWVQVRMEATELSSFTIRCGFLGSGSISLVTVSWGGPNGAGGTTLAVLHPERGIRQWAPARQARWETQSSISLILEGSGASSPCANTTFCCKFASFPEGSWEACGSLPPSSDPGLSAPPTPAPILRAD
Assay: competition ELISA, PVRIG-His coated, competitor human PVRL2-mFc
Measurement Kind: % relative activity (IC50) parental antibody/test antibody (%)
Answers are plain numbers, in %.

Some solved entries appear below for comparison.
PVRIG-A118-H1 (Fc fusion, humanized variant of PVRIG-A118; also called A118.VH1; not shown: constant part not restated for the humanized forms; parents are VHH-hinge-CH2-CH3 of human IgG1; detected by anti-human) EVQLVESGGGLVQPGGSLRLSCAASETYFDLYVMGWYRQAPGKDRELVATITYTGSIYYVDSVKGRFTISRDNAKNSLYLQMNSLRAEDTAVYYCNADPSGLGRKVYWGQGTMVTVSS | 157
PVRIG-A105-H1 (Fc fusion, humanized variant of PVRIG-A105; also called A105.VH1; not shown: constant part not restated for the humanized forms; parents are VHH-hinge-CH2-CH3 of human IgG1; detected by anti-human) EVQLVESGGGLVQPGGSLRLSCAASGRTFDRHTMSWFRQAPGKEREFVATASRIPGDTYYVDSVKGRFTISRDNAKNSLYLQMNSLRAEDTAVYYCAATSAYCSEVDCYEKGSWYDNWGQGTMVTVSS | 133
PVRIG-A105-H5 (Fc fusion, humanized variant of PVRIG-A105; also called A105.VH5; not shown: constant part not restated for the humanized forms; parents are VHH-hinge-CH2-CH3 of human IgG1; detected by anti-human) EVQLVESGGGLVQPGGSLRLSCAASGRTFDRHTMTWFRQAPGKEREFVATASRIPGDTYYVDSVKGRFTISRDNAKNSLYLQMNSLRAEDTAVYYCAATSAYCSEVDCYEKGSWYDNWGQGIQVTVSS | 114
PVRIG-A50-H1b (Fc fusion, humanized variant of PVRIG-A50; also called A50.VH1b; not shown: constant part not restated for the humanized forms; parents are VHH-hinge-CH2-CH3 of human IgG1; detected by anti-human) EVQLVESGGGLVQPGGSLRLSCAASGFTFSYYDMSWVRQAPGKGLEWVSTINSDGGRTSYVDSVKGRFTISRDNSKNTLYLQMNSLRAEDTAVYYCVEGDPHNFGLESLSLRDFGSWGQGTMVTVSS | 125

[ask] Recall and state the measured % relative activity (IC50) parental antibody/test antibody for PVRIG-A105-H4 (Fc fusion, humanized variant of PVRIG-A105; also called A105.VH4; not shown: constant part not restated for the humanized forms; parents are VHH-hinge-CH2-CH3 of human IgG1; detected by anti-human) EVQLVESGGGLVQPGGSLRLSCAASGRTFDRHTMTWFRQAPGKEREFVATASRIPGDTYYSHSVKGRFTISRDNAKNSLYLQMNSLRAEDTAVYYCAATSAYCSEVDCYEKGSWYDNWGQGTMVTVSS .
[reply] 107

Source of measurements: patent US20240343803A1
